melting point: recorded values

>  <Compound>
CC(=NNc1nc(-c2nn(-c3ccccc3)cc2C(=O)c2ccc3ccccc3c2)cs1)c1cc2ccccc2oc1=O

>  <melting point>
239 to 241 °C

$$$$

Ask: GET /values?readout=melting point&item= O=C(c1ccc2ccccc2c1)c1cn(-c2ccccc2)nc1-c1csc(N/N=C\c2ccccc2OCCCCOc2ccccc2/C=N\Nc2nc(-c3nn(-c4ccccc4)cc3C(=O)c3ccc4ccccc4c3)cs2)n1 [Compound 21c]
Reply: 230 to 232 °C

Ask: Give the measured melting point of O=C(c1ccc2ccccc2c1)c1cn(-c2ccccc2)nc1-c1csc(N/N=C/c2ccc(OCCCOc3ccc(/C=N/Nc4nc(-c5nn(-c6ccccc6)cc5C(=O)c5ccc6ccccc6c5)cs4)cc3)cc2)n1 [Compound 18b] .
Reply: 200 to 202 °C

Ask: For the compound `O=C(c1ccc2ccccc2c1)c1cn(-c2ccccc2)nc1-c1csc(NN=Cc2ccc([N+](=O)[O-])cc2)n1` , what melting point is on record?
Reply: 231 to 233 °C

Ask: Param item = O=C(c1ccc2ccccc2c1)c1cn(-c2ccccc2)nc1-c1csc(N/N=C\c2ccccc2OCCCOc2ccccc2/C=N\Nc2nc(-c3nn(-c4ccccc4)cc3C(=O)c3ccc4ccccc4c3)cs2)n1 [Compound 21b] ; retrieve measured melting point.
Reply: 209 to 211 °C
